- Tested on: PPARg:RXRa 270nM:90nM, anti-RXR (NR concentration 270 nM, RXRa partner concentration 90 nM)
- assay_remarks: PBM binding z-score (relative to random genomic background probes); higher = stronger binding; sequences stand for … in GC…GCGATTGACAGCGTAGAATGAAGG
readout: PBM binding z-score
Numbers only.

macromolecule_sequence=AGAATAAGGTTACCAAAGATCAGGGAAACGCTTG readout="PBM binding z-score" quantitative_result=2.41
macromolecule_sequence=TCGAGTACGTTACCAATGGGGCATTCAGCTTTCT readout="PBM binding z-score" quantitative_result=0.394
macromolecule_sequence=CTTTACGGGTCACGAGGTTATAGCACGACGAGCG readout="PBM binding z-score" quantitative_result=7.02
macromolecule_sequence=ACTATTAGTTGAGACGAGGGCAACCAATAGGTTG readout="PBM binding z-score" quantitative_result=0.464
macromolecule_sequence=ATCGAAAGGTCGTGAGGTGAGTATTCAGAAAGGC readout="PBM binding z-score" quantitative_result=4.24

Query sequence follows.
Lab note: measured PBM binding z-score of "ACTTACAGGTCAACGAGGTTATAGCACGCGTATA" was 5.63
